Here the recorded mass density is given for each entry.
- protocol conditions: 308.15 K; 101 kPa; Liquid
observed property: mass density (kg/m3)

[[record]]
molecule = "CCCCCCCCCCO [decan-1-ol]"
endpoint_unit = "kg/m3"
endpoint_value = 819.53

[[record]]
molecule = "CCCCCCCCCO [nonan-1-ol]"
endpoint_unit = "kg/m3"
endpoint_value = 817.36

[[record]]
molecule = "CCCCCCCO [heptan-1-ol]"
endpoint_unit = "kg/m3"
endpoint_value = 811.73

[[record]]
molecule = "CCCCCCCCO [octan-1-ol]"
endpoint_unit = "kg/m3"
endpoint_value = 814.64

[[record]]
molecule = "CCCCn1cc[n+](C)c1.N#C[S-] [1-butyl-3-methylimidazolium thiocyanate]"
endpoint_unit = "kg/m3"
endpoint_value = 1063.89

